Molecular target: human CXCR4 (human)
Experiment: competition vs [125I]-CXCL12, membranes of HEK293T cells expressing CXCR4
READOUT_LABEL: Displacem. (%)
Give a bare numeral; the unit % is implied.

Memo: 238D2-15GS-238D4 (VHH) EVQLVESGGGLVQTGGSLRLSCAASGFTFSSYAMSWVRQAPGKGLEWVSGIKSSGDSTRYAGSVKGRFTISRDNAKNMLYLQMYSLKPEDTAVYYCAKSRVSRTGLYTYDNRGQGTQVTVSSGGGGSGGGGSGGGGSEVQLMESGGGLVQAGGSLRLSCAASGRTFNNYAMGWFRRAPGKEREFVAAITRSGVRSGVSAIYGDSVKDRFTISRDNAKNTLYLQMNSLKPEDTAVYTCAASAIGSGALRRFEYDYSGQGTQVTVSS , reported Displacem. (%): 92
